Reference for the values: PubChem BioAssay (NCI)

system: NCI-H460 lung; assay: NCI-60 one-dose screen, 48 h (100 = growth as untreated, 0 = no growth, -100 = all killed); conditions: 10 µM unless noted
Compounds without any hit were thinned out: in the full panel of roughly 83,000, 20% have a hit.
readout_name: growth (%)
# value in %; strip the unit string

A selection of reference data follows.
molecule=CCCCn1c(=O)c2c(nc3n2CCCN3CCc2ccc(OCC(=O)NCCN(CC)CC)cc2)n(CCCC)c1=O test_result=56.9
molecule=COc1cccc(-c2nn(-c3ccccc3)cc2-c2ccnc(NCCNC(=O)Nc3cccc(C(F)(F)F)c3)c2)c1 test_result=7.98
molecule=N#Cc1c(N2CCNCC2)nc2sc3cc(Cl)c(Cl)cc3n2c1=N test_result=97.8
molecule="N#Cc1c2c(nn(-c3ccccc3)c1=O)C(O)=C([N+](=O)[O-])C(c1ccccc1)C2 (stereo not drawn)" test_result=91.6

State growth (NCI-H460 lung) of `COC(=O)c1c2c(c[n+]([O-])c1C)C(=O)C=CC2=O` . 98.4

With NCI-H460 lung as the test system, provide measured growth for this molecule: `O=S(=O)(O)c1ccc(N/N=C/c2ccccc2Cl)cc1` 109

Give measured growth for `COc1cccc(-c2nn(-c3ccccc3)cc2-c2ccnc(NCCNC(=O)c3ccccc3)c2)c1` (NCI-H460 lung). 63.7

Provide growth, tested on NCI-H460 lung, for `C=CCSc1nc2ccccc2cc1/C=N/O` . 90.4

* * *

test system: HCC-2998 colon; assay: NCI-60 one-dose screen, 48 h (100 = growth as untreated, 0 = no growth, -100 = all killed); details: 10 µM unless noted
Compounds without any hit were thinned out: in the full panel of roughly 83,000, 20% have a hit.
readout_name: growth (%)
Response body: numeric value in %, unit text excluded.

Known growth results, listed for orientation:
compound=CC(=O)c1nc(Nc2ccc(C)cc2)sc1C measured_on="HCC-2998 colon" units_of_measure=% test_result=101
compound=NC(=S)N/N=C/Cc1ccccc1 measured_on="HCC-2998 colon" units_of_measure=% test_result=113
compound=O=C(/C=C/c1cccc(O)c1)c1cccc(-n2cc(-c3ccc4ccccc4c3)[nH]c2=O)c1 measured_on="HCC-2998 colon" units_of_measure=% test_result=44.3

Return reported growth. Input compound: `COc1ccc2c(c1)C(=O)/C(=C/c1ccc(OCC(=O)Nc3nccs3)cc1)O2` 113

Quickly give me recorded growth for `O=C(COc1ccc(/C=C2\Oc3ccccc3C2=O)cc1)Nc1nc2c(s1)CCCC2` 99.6

Output growth of `COC(=O)/C=C1\S/C(=N\NS(=O)(=O)c2ccc(C)cc2)N(c2ccccc2)C1=O` 121

Name the recorded growth of the compound listed here: `CCN1CCN(c2cc(C)nc(NCc3cc(Nc4ccnc5cc(Cl)ccc45)ccc3F)n2)CC1` 28

* * *

growth values for the compounds below.
test system: SW-620 colon; assay: NCI-60 one-dose screen, 48 h (100 = growth as untreated, 0 = no growth, -100 = all killed); details: 10 µM unless noted
About 83,000 compounds went through this panel and 20% of them were active in at least one assay; those are over-represented in the sample as a whole.
Express your answer in %, writing the number without its unit.

Consider the worked cases shown below.
compound=COc1cc(Cn2ncc3ccc(NC(=O)c4cc5ccccc5oc4=N)cc32)cc(OC)c1OC readout_name=growth units_of_measure=% test_result=43.5
compound="N#CC1=C(/N=C/c2ccccc2)Oc2c(ccc3ccccc23)C1c1ccccc1 (centres undefined)" readout_name=growth units_of_measure=% test_result=23.9
compound=NC(N)=Nc1nc2ccccc2n2c1nc1ccccc12 readout_name=growth units_of_measure=% test_result=24.9
compound=C=C1C(=O)O[C@H]2[C@H]1CC/C(COC(=O)C(=O)c1c[nH]c3ccc(OC)cc13)=C\CC[C@@]1(C)O[C@@H]21 readout_name=growth units_of_measure=% test_result=-61.4
compound=O=C1CCc2c(sc3[nH]c(=S)n(-c4ccc(OC(F)(F)F)cc4)c(=O)c23)C1 readout_name=growth units_of_measure=% test_result=19.9
compound="N#C/C(=C/C=C/c1cccc(Cl)c1)S(=O)c1ccccc1 (centres undefined)" readout_name=growth units_of_measure=% test_result=-58.9

Please look at COc1cc(C2CC(=O)Nc3c2c(C)nn3-c2nc3ccccc3[nH]2)cc2c1OCC(=O)N2 (centres undefined) and tell me its recorded growth on SW-620 colon. 52.4

Lab note: SW-620 colon assay, enter growth for `Oc1c(CN2CCCC2)cc(COCc2ccc(Br)cc2)c2cccnc12` here 5.64

State measured growth of the compound `COc1ccc(OC)c(-c2c(C#N)c(-c3ccc(Cl)cc3)nc3c2c(-c2ccccc2)nn3-c2ccccc2)c1` with SW-620 colon. 98.6

Fill: growth (SW-620 colon) for this compound `COC(=O)[C@]12CC[C@@H](C)[C@H](C)[C@@H]1C1=CC[C@@H]3[C@@]4(C)C(C=O)=C[C@@](C)(CO)[C@@H]4[C@H](O)C[C@@]3(C)[C@]1(C)CC2` -1.77

Under SW-620 colon, report growth for `CNC(=O)c1cc(Oc2cccc3nc(Nc4ccc(F)c(Cl)c4)ccc23)ccn1` 20.3

Give reported growth for `O=c1ssc(Cl)c1-c1ccccc1` (SW-620 colon) 95.2

Give measured growth for `O=C1Nc2ccccc2/C1=C/c1cn(C(=O)c2c(Cl)cccc2Cl)c2ccccc12` (SW-620 colon). 45.5

Tell me its growth on SW-620 colon: `COc1c(CCC[P+](c2ccccc2)(c2ccccc2)c2ccccc2)cc2c(c1OC)OCO2` 13.1

State, for SW-620 colon, measured growth of the compound listed here: `CCc1c2c(nc3ccc(OC(=O)OCc4ccc(B5OC(C)(C)C(C)(C)O5)cc4)cc13)-c1cc3c(c(=O)n1C2)COC(=O)[C@]3(O)CC` 5.3

Answer with growth of `S=C(c1ccc2c(c1)OCO2)N1CCN(c2ccccc2Cl)CC1` measured for SW-620 colon. 102
